Experiment: total protein half-life in vivo (active degradation + dilution); higher = more stable protein
Details: wild type E. coli NCM3722; growth: N-lim chemostat; doubling time 12 h
Catalogue of sequences with associated total protein half-life in vivo
Write it as a number; the unit h goes unstated.

ordered_residues=MVKKAIVTAMAVISLFTLMGCNNRAEVDTLSPAQAAELKPMPQSWRGVLPCADCEGIETSLFLEKDGTWVMNERYLGAREEPSSFASYGTWARTADKLVLTDSKGEKSYYRAKGDALEMLDREGNPIESQFNYTLEAAQSSLPMTPMTLRGMYFYMADAATFTDCATGKRFMVANNAELERSYLAARGHSEKPVLLSVEGHFTLEGNPDTGAPTKVLAPDTAGKFYPNQDCSSLGQ recorded_endpoint="total protein half-life in vivo" test_value=11.5

Note: attention shifts to another entry.
Query: Write down total protein half-life in vivo measured for item MTFIKGLPLMLLTISLGCNAAVQPDRTRIVFNANDKATSLRIENQSDKLPYLAYSWIENEKGEKSDALLVALPPIQRLEPKATSQVRVVKQASTTQLPGDRETLFFYNMREIPPAPDKSSDHAILQVAIQSRIKLFWRPAALRKKAGEKVELQLQVSQQGNQLTLKNPTAYYLTIAYLGRNEKGVLPGFKTVMVAPFSTVNTNTGSYSGSQFYLGYMDDYGALRMTTLNCSGQCRLQAVEAK
Response: 14.3

###

Assay: total protein half-life in vivo (active degradation + dilution); higher = more stable protein
Settings: E. coli NCM3722 delta-smpB; growth: N-lim chemostat; doubling time 6 h
Recorded Endpoint: total protein half-life in vivo (h)
Write it as a number; the unit h goes unstated.

ordered_residues="MMSQPAKVLLLYAHPESQDSVANRVLLKPATQLSNVTVHDLYAHYPDFFIDIPREQALLREHEVIVFQHPLYTYSCPALLKEWLDRVLSRGFASGPGGNQLAGKYWRSVITTGEPESAYRYDALNRYPMSDVLRPFELAAGMCRMHWLSPIIIYWARRQSAQELASHARAYGDWLANPLSPGGR [P0A756]" recorded_endpoint="total protein half-life in vivo" test_value=5.51
ordered_residues=MPLPDFRLIRLLPLAALVLTACSVTTPKGPGKSPDSPQWRQHQQDVRNLNQYQTRGAFAYISDQQKVYARFFWQQTGQDRYRLLLTNPLGSTELELNAQPGNVQLVDNKGQRYTADDAEEMIGKLTGMPIPLNSLRQWILGLPGDATDYKLDDQYRLSEITYSQNGKNWKVVYGGYDTKTQPAMPANMELTDGGQRIKLKMDNWIVK recorded_endpoint="total protein half-life in vivo" test_value=6.06

Query: Write down total protein half-life in vivo measured for item MELKDYYAIMGVKPTDDLKTIKTAYRRLARKYHPDVSKEPDAEARFKEVAEAWEVLSDEQRRAEYDQMWQHRNDPQFNRQFHHGDGQSFNAEDFDDIFSSIFGQHARQSRQRPATRGHDIEIEVAVFLEETLTEHKRTISYNLPVYNAFGMIEQEIPKTLNVKIPAGVGNGQRIRLKGQGTPGENGGPNGDLWLVIHIAPHPLFDIVGQDLEIVVPVSPWEAALGAKVTVPTLKESILLTIPPGSQAGQRLRVKGKGLVSKKQTGDLYAVLKIVMPPKPDENTAALWQQLADAQSSFDPRKDWGKA
Response: 4.99

###

Assay: total protein half-life in vivo (active degradation + dilution); higher = more stable protein
Conditions: E. coli NCM3722 delta-hslV; growth: N-lim chemostat; doubling time 6 h
Recorded Endpoint: total protein half-life in vivo (h)
Write it as a number; the unit h goes unstated.

Use the examples below as a reference point.
ordered_residues="MSQTVHFQGNPVTVANSIPQAGSKAQTFTLVAKDLSDVTLGQFAGKRKVLNIFPSIDTGVCAASVRKFNQLATEIDNTVVLCISADLPFAQSRFCGAEGLNNVITLSTFRNAEFLQAYGVAIADGPLKGLAARAVVVIDENDNVIFSQLVDEITTEPDYEAALAVLKA [P0A862]" recorded_endpoint="total protein half-life in vivo" test_value=5.25
ordered_residues="MNTVCTHCQAINRIPDDRIEDAAKCGRCGHDLFDGEVINATGETLDKLLKDDLPVVIDFWAPWCGPCRNFAPIFEDVAQERSGKVRFVKVNTEAERELSSRFGIRSIPTIMIFKNGQVVDMLNGAVPKAPFDSWLNESL [P0AGG4]" recorded_endpoint="total protein half-life in vivo" test_value=2.37

Query: Write down total protein half-life in vivo measured for item MLINIGRLLMLCVWGFLILNLVHPFPRPLNIFVNVALIFTVLMHGMQLALLKSTLPKDGPQMTTAEKVRIFLFGVFELLAWQKKFKVKK
Response: 7.72

###

Catalogue of sequences with associated total protein half-life in vivo
Assay: total protein half-life in vivo (active degradation + dilution); higher = more stable protein
Details: wild type E. coli NCM3722; growth: C-lim chemostat; doubling time 3 h
Write it as a number; the unit h goes unstated.

Use the examples below as a reference point.
ordered_residues=MNALLSNPFKERLRKGEVQIGLWLSSTTAYMAEIAATSGYDWLLIDGEHAPNTIQDLYHQLQAVAPYASQPVIRPVEGSKPLIKQVLDIGAQTLLIPMVDTAEQARQVVSATRYPPYGERGVGASVARAARWGRIENYMAQVNDSLCLLVQVESKTALDNLDEILDVEGIDGVFIGPADLSASLGYPDNAGHPEVQRIIETSIRRIRAAGKAAGFLAVAPDMAQQCLAWGANFVAVGVDTMLYSDALDQRLAMFKSGKNGPRIKGSY units_symbol=h test_value=2.74
ordered_residues=MKKAKILSGVLLLCFSSPLISQAATLDVRGGYRSGSHAYETRLKVSEGWQNGWWASMESNTWNTIHDNKKENAALNDVQVEVNYAIKLDDQWTVRPGMLTHFSSNGTRYGPYVKLSWDATKDLNFGIRYRYDWKAYRQQDLSGDMSRDNVHRWDGYVTYHINSDFTFAWQTTLYSKQNDYRYANHKKWATENAFVLQYHMTPDITPYIEYDYLDRQGVYNGRDNLSENSYRIGVSFKL units_symbol=h test_value=3.09
ordered_residues="MDKQSLHETAKRLALELPFVELCWPFGPEFDVFKIGGKIFMLSSELRGVPFINLKSDPQKSLLNQQIYPSIKPGYHMNKKHWISVYPGEEISEALLRDLINDSWNLVVDGLAKRDQKRVRPG [P0AAT2]" units_symbol=h test_value=3.35
ordered_residues="MTVKQTVEITNKLGMHARPAMKLFELMQGFDAEVLLRNDEGTEAEANSVIALLMLDSAKGRQIEVEATGPQEEEALAAVIALFNSGFDED [P0A9N0]" units_symbol=h test_value=2.15
ordered_residues="MIGRLLRGGFMTAIYAYLYIPIIILIVNSFNSSRFGINWQGFTTKWYSLLMNNDSLLQAAQHSLTMAVFSATFATLIGSLTAVALYRYRFRGKPFVSGMLFVVMMSPDIVMAISLLVLFMLLGIQLGFWSLLFSHITFCLPFVVVTVYSRLKGFDVRMLEAAKDLGASEFTILRKIILPLAMPAVAAGWVLSFTLSMDDVVVSSFVTGPSYEILPLKIYSMVKVGVSPEVNALATILLVLSLVMVIASQLIARDKTKGNTGDVK [P0AFK6]" units_symbol=h test_value=3.13
ordered_residues=MTNQPTEIAIVGGGMVGGALALGLAQHGFAVTVIEHAEPAPFVADSQPDVRISAISAASVSLLKGLGVWDAVQAMRCHPYRRLETWEWETAHVVFDAAELKLPLLGYMVENTVLQQALWQALEAHPKVTLRVPGSLIALHRHDDLQELELKGGEVIRAKLVIGADGANSQVRQMAGIGVHAWQYAQSCMLISVQCENDPGDSTWQQFTPDGPRAFLPLFDNWASLVWYDSPARIRQLQNMNMAQLQAEIAKHFPSRLGYVTPLAAGAFPLTRRHALQYVQPGLALVGDAAHTIHPLAGQGVNLGYRDVDALIDVLVNARSYGEAWASYPVLKRYQMRRMADNFIMQSGMDLFYAGFSNNLPPLRFMRNLGLMAAERAGVLKRQALKYALGL units_symbol=h test_value=2.59
ordered_residues="MFPEYRDLISRLKNENPRFMSLFDKHNKLDHEIARKEGSDGRGYNAEVVRMKKQKLQLKDEMLKILQQESVKEV [P0ACW6]" units_symbol=h test_value=1.33
ordered_residues=MGLPPLSKIPLILRPQAWLHRRHYGEVLSPIRWWGRIPFIFYLVSMFVGWLERKRSPLDPVVRSLVSARIAQMCLCEFCVDITSMKVAERTGSSDKLLAVADWRQSPLFSDEERLALEYAEAASVTPPTVDDALRTRLAAHFDAQALTELTALIGLQNLSARFNSAMDIPAQGLCRIPEKRS units_symbol=h test_value=2.74

Query: Write down total protein half-life in vivo measured for item MDMHSGTFNPQDFAWQGLTLTPAAAIHIRELVAKQPGMVGVRLGVKQTGCAGFGYVLDSVSEPDKDDLLFEHDGAKLFVPLQAMPFIDGTEVDFVREGLNQIFKFHNPKAQNECGCGESFGV
Response: 1.94

Query: Write down total protein half-life in vivo measured for item MDKSKRHLAWWVVGLLAVAAIVAWWLLRPAGVPEGFAVSNGRIEATEVDIASKIAGRIDTILVKEGKFVREGEVLAKMDTRVLQEQRLEAIAQIKEAQSAVAAAQALLEQRQSETRAAQSLVNQRQAELDSVAKRHTRSRSLAQRGAISAQQLDDDRAAAESARAALESAKAQVSASKAAIEAARTNIIQAQTRVEAAQATERRIAADIDDSELKAPRDGRVQYRVAEPGEVLAAGGRVLNMVDLSDVYMTFFLPTEQAGTLKLGGEARLILDAAPDLRIPATISFVASVAQFTPKTVETSDERLKLMFRVKARIPPELLQQHLEYVKTGLPGVAWVRVNEELPWPDDLVVRLPQ
Response: 3.27

Query: Write down total protein half-life in vivo measured for item MQERHTEQDYRALLIADTPIIDVRAPIEFEHGAMPAAINLPLMNNDERAAVGTCYKQQGSDAALALGHKLVAGEIRQQRMDAWRAACLQNPQGILCCARGGQRSHIVQSWLHAAGIDYPLVEGGYKALRQTAIQATIELAQKPIVLIGGCTGSGKTLLVQQQPNGVDLEGLARHRGSAFGRTLQPQLSQASFENLLAAEMLKTDARQNLRLWVLEDESRMIGSNHLPECLRERMTQAAIAVVEDPFEIRLERLNEEYFLRMHHDFTHAYGDEQGWQEYCEYLHHGLSAIKRRLGLQRYNELAARLDAALTTQLTTGSTDGHLAWLVPLLEEYYDPMYRYQLEKKAEKVVFRGEWAEVAEWVKAR
Response: 3.16

Ref: the supplement of paper PMC11246515
